- system name: 5-hydroxytryptamine receptor 2C (Homo sapiens)
- assay details: Agonist activity at unedited 5-HT2C receptor (unknown origin) expressed in HEK293 cells assessed as [3H]inositol phosphate accumulation after 2 hrs by scintillation counting
- Assay type: functional, cell-based
- condition details: read-out: pEC50 (converted)
observed property: EC50 (nM)
State the answer as a number, implicitly in nM.

Some entries whose results are on file:
> print(dat)
                                   compound  observed.property  measured.result
1           COc1ccc2c(c1Cl)N1CCCNC[C@H]1CC2               EC50              158
2  Fc1ccc2c(c1Cl)N1CCNCC1CC2 (stereo unspecified)               EC50             6.31
3  Clc1cccc2c1N1CCCNCCC1CC2 (stereo unspecified)               EC50             25.1

Please report EC50 for the following compound: COCc1cccc2c1CCC1CNCCN21 (stereo unspecified)
20

Please report EC50 for the following compound: `Fc1ccc2c(c1Cc1ccccc1)CC[C@@H]1CNCCCN21`
20

Please report EC50 for the following compound: `COc1cc2c(cc1Cl)N1CCCNC[C@H]1CC2`
39.8

Please report EC50 for the following compound: c1cc(CC2CCC2)c2c(c1)N1CCCNCC1CC2 (stereo unspecified)
126

Please report EC50 for the following compound: Fc1ccc2c(c1)N1CCNCC1CC2 (stereo unspecified)
0.794

Please report EC50 for the following compound: Clc1ccc2c(c1)CCC1CCNCCCN21 (stereo unspecified)
200

Please report EC50 for the following compound: Fc1ccc2c(c1Cc1ccccc1)CCC1CNCCN21 (stereo unspecified)
1

---

- system name: UniProtKB P28335
- Sequence (P28335 whole entry): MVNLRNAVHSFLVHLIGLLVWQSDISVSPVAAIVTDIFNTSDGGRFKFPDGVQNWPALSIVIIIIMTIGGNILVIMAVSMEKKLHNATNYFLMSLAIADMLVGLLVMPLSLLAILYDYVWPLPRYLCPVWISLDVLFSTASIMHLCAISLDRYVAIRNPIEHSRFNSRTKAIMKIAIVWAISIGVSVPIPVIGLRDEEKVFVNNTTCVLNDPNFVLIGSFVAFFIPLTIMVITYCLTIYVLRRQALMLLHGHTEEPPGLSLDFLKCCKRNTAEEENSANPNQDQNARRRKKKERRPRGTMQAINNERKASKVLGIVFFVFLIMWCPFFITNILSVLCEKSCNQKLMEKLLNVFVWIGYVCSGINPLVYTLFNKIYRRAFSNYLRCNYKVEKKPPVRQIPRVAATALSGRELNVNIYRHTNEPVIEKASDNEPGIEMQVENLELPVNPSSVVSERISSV
- assay details: Agonist activity at unedited 5-HT2C receptor (unknown origin) expressed in HEK293 cells assessed as [3H]inositol phosphate accumulation after 2 hrs by scintillation counting
- Assay type: functional, cell-based
- condition details: read-out: pEC50 (converted)
observed property: EC50 (nM)
State the answer as a number, implicitly in nM.

Some entries whose results are on file:
> print(dat)
                                   compound       system.name  observed.property  measured.result
1       COc1cc2c(c(Cl)c1Cl)N1CCCNC[C@H]1CC2  UniProtKB P28335               EC50               10
2             Fc1ccc2c(c1)CC[C@@H]1CNCCCN21  UniProtKB P28335               EC50             25.1
3  COc1ccc2c(c1)CCC1CNCCN21 (stereo not given)  UniProtKB P28335               EC50              251
4            COc1ccc2c(c1)CC[C@@H]1CNCCCN21  UniProtKB P28335               EC50              631

Please report EC50 for the following compound: CCCc1ccc2c(c1)N1CCNCC1CC2 (stereo not given)
63.1

---

- system name: 5-hydroxytryptamine receptor 2B (Homo sapiens, UniProt P41595)
- Sequence (P41595 whole entry): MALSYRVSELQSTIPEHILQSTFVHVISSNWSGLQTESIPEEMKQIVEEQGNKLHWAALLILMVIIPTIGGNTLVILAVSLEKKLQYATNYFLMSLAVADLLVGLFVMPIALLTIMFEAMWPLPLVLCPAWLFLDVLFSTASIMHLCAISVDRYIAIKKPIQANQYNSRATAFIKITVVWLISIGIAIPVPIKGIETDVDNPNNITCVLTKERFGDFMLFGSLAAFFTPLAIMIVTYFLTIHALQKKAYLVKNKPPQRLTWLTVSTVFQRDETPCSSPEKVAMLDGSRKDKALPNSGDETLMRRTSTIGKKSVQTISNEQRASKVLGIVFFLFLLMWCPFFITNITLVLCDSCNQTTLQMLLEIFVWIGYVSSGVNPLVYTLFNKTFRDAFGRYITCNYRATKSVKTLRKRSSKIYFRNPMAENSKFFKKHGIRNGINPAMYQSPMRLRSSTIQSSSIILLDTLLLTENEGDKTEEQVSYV
- assay details: Agonist activity at 5-HT2B receptor (unknown origin) expressed in HEK293 cells assessed as [3H]inositol phosphate accumulation after 2 hrs by scintillation counting
observed property: pEC50
Worth noting: pEC50 values are minus log10 of concentrations stated in mol/L.

> print(dat)
                                   compound  observed.property  measured.result
1  Clc1cccc2c1N1CCCNCCC1CC2 (configuration not stated)              pEC50             7.00
2  CC1(C)Cc2cccc(Cl)c2N2CCNCC21 (configuration not stated)              pEC50             7.00
3               c1ccc2c(c1)CC[C@@H]1CNCCN21              pEC50             7.20

Look up 5-hydroxytryptamine receptor 2B (Homo sapiens, UniProt P41595) data: pEC50 of `COc1cc2c(cc1Cl)N1CCCNC[C@H]1CC2` , then report it.
6.80

Look up 5-hydroxytryptamine receptor 2B (Homo sapiens, UniProt P41595) data: pEC50 of CCSc1cccc2c1CCC1CNCCN21 (configuration not stated) , then report it.
7.10

Look up 5-hydroxytryptamine receptor 2B (Homo sapiens, UniProt P41595) data: pEC50 of Fc1ccc2c(c1)CCC1CNCCN21 (configuration not stated) , then report it.
6.90

Look up 5-hydroxytryptamine receptor 2B (Homo sapiens, UniProt P41595) data: pEC50 of `COc1cccc2c1N1CCCNC[C@H]1CC2` , then report it.
7.00
